Attribution: ChEMBL document CHEMBL1143902

target: Macrophage colony-stimulating factor 1 receptor (Homo sapiens, UniProt P07333)
Sequence (P07333 whole entry): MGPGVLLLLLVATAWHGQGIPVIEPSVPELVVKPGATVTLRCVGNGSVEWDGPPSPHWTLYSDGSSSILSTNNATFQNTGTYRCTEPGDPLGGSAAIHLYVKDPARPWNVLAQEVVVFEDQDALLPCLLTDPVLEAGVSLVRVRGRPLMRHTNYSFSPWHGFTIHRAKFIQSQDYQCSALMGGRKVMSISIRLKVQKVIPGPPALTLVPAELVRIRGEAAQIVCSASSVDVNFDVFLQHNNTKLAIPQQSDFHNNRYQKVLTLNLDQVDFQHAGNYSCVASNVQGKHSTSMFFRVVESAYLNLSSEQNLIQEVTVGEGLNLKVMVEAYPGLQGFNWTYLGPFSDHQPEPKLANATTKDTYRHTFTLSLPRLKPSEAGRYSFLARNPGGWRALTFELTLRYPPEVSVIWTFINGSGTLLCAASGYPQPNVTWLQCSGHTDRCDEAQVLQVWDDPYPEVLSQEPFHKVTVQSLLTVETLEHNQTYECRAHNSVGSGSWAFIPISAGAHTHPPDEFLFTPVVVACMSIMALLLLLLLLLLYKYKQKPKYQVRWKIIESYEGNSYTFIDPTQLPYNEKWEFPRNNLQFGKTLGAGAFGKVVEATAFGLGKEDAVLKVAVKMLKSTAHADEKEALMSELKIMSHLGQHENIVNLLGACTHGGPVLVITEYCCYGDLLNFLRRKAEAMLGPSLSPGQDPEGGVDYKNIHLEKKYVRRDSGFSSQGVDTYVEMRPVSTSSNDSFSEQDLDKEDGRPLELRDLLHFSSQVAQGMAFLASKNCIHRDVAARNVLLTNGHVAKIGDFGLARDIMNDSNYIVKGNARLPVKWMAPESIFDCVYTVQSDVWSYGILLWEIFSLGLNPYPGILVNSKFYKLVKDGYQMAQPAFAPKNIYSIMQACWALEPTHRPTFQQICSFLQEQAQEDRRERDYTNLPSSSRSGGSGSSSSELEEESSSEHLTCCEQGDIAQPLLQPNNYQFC
pIC50: −log10 of the molar value.
Response key: fulfilled means pIC50 >= 7; not fulfilled means pIC50 < 7.

>>> print(df.to_string())
                  compound_structure_string  discrete_label
0  CN1CCN(CCCNc2ncc3c(=O)c(C(N)=O)cn(-c4ccc5c(c4)CCC5)c3n2)CC1   not fulfilled
1  CCOC(=O)c1cn(-c2ccc3c(c2)CCC3)c2nc(Nc3ccc(N4CCN(C)CC4)cc3)ncc2c1=O   not fulfilled
2  NC(=O)c1cn(-c2ccc3c(c2)CCC3)c2nc(Nc3ccc(CN4CCOCC4)cc3)ncc2c1=O       fulfilled
3  NC(=O)c1cn(-c2ccc3c(c2)CCC3)c2nc(Nc3ccccc3)ncc2c1=O   not fulfilled
4  NC(=O)c1cn(-c2ccc3c(c2)CCC3)c2nc(Nc3ccc(CCN4CCOCC4)cc3)ncc2c1=O       fulfilled

---

test: Metabolic stability in rat liver microsomes after 10 mins; type: ADME, Microsome; conditions: read-out: Stability
Attribute: remaining at 10 min
MEASURED_QUANTITY: remaining at 10 min (%)

In [3]: df
Out[3]:
                  compound_structure_string    measured_quantity  unit_name  test_value
0  CN(C)CCc1ccc(Nc2ncc3c(=O)c(C(N)=O)cn(-c4ccc5c(c4)CCC5)c3n2)cc1  remaining at 10 min          %          65
1  NC(=O)c1cn(-c2ccc3c(c2)CCC3)c2nc(Nc3ccc(CN4CCOCC4)cc3)ncc2c1=O  remaining at 10 min          %         9.7
2  CN1CCN(CCc2ccc(Nc3ncc4c(=O)c(C(N)=O)cn(-c5ccc6c(c5)CCC6)c4n3)cc2)CC1  remaining at 10 min          %          84
3  CN1CCN(Cc2ccc(Nc3ncc4c(=O)c(C(N)=O)cn(-c5ccc6c(c5)CCC6)c4n3)cc2)CC1  remaining at 10 min          %          54

---

test: Volume of distribution in rat at 2 mg/kg, iv; type: ADME, organism-based; set-up: dose 2 mg/kg, route intravenous; settings: in vivo
MEASURED_QUANTITY: Vd (L/kg)

>>> df
                  compound_structure_string  measured_quantity  test_value
0  CN1CCN(c2ccc(Nc3ncc4c(=O)c(C(N)=O)cn(-c5ccc6c(c5)CCC6)c4n3)cc2)CC1                 Vd        18.7
1  CN1CCN(Cc2ccc(Nc3ncc4c(=O)c(C(N)=O)cn(-c5ccc6c(c5)CCC6)c4n3)cc2)CC1                 Vd        26.5

---

experiment: Metabolic stability in human liver microsomes after 10 mins; format: ADME, Microsome; details: read-out: Stability
Attribute: remaining at 10 min
MEASURED_QUANTITY: remaining at 10 min (%)

>>> print(df.to_string())
                  compound_structure_string  test_value
0  CN(C)Cc1ccc(Nc2ncc3c(=O)c(C(N)=O)cn(-c4ccc5c(c4)CCC5)c3n2)cc1          35
1  CN1CCN(c2ccc(Nc3ncc4c(=O)c(C(N)=O)cn(-c5ccc6c(c5)CCC6)c4n3)cc2)CC1        80.5
2  CN(C)CCc1ccc(Nc2ncc3c(=O)c(C(N)=O)cn(-c4ccc5c(c4)CCC5)c3n2)cc1          88
3  CN1CCN(CCc2ccc(Nc3ncc4c(=O)c(C(N)=O)cn(-c5ccc6c(c5)CCC6)c4n3)cc2)CC1          96
4  CN1CCN(Cc2ccc(Nc3ncc4c(=O)c(C(N)=O)cn(-c5ccc6c(c5)CCC6)c4n3)cc2)CC1          74
5  NC(=O)c1cn(-c2ccc3c(c2)CCC3)c2nc(Nc3ccc(CN4CCOCC4)cc3)ncc2c1=O         2.5
6  NC(=O)c1cn(-c2ccc3c(c2)CCC3)c2nc(Nc3ccc(CCN4CCOCC4)cc3)ncc2c1=O          58
